systemTested: UniProtKB O14744
Sequence (O14744 whole entry): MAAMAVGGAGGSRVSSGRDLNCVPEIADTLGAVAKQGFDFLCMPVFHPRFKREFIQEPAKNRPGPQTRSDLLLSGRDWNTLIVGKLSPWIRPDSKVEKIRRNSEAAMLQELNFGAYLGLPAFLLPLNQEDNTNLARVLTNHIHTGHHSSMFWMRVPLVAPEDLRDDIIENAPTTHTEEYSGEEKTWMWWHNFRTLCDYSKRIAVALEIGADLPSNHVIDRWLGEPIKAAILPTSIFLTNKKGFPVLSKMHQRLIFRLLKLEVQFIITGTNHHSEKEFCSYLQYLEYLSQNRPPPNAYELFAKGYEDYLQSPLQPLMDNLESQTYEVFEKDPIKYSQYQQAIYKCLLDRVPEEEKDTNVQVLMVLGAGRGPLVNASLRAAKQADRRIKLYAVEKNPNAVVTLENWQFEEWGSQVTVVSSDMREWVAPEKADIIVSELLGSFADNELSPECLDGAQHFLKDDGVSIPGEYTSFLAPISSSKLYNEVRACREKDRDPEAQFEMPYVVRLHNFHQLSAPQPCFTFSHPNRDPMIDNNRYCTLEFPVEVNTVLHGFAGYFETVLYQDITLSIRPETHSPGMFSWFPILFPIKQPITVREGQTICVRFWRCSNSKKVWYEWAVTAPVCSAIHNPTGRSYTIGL
Sequence (Q9BQA1 whole entry partner): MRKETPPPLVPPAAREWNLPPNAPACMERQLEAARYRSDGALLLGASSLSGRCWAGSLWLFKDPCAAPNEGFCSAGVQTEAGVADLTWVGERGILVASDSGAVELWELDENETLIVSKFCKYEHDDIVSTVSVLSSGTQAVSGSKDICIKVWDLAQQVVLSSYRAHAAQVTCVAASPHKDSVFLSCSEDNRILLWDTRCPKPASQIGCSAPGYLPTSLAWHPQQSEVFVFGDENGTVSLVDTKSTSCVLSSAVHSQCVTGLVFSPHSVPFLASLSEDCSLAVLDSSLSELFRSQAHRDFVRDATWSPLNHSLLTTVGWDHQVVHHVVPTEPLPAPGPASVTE
assayProtocol: biochemical
conditionNotes: IC50 (nM), PRMT5+MTA enzyme activity inhibition; PRMT5/MET50 protein 1 nM, 5'-deoxy-5'-adenosine 1 µM, SAM 2.5 µM, Histone H4 substrate 5 nM
Mark each entry condition met if its IC50 sits below 2 nM, and condition not met for all others.

Example entries and their recorded answers appear below.
# compound, systemTested, assignedLabel
data = [
    ("CNC(N)=Nc1ccc(C(=O)N(Cc2ccc(-c3ccc(C)nc3)cn2)[C@H](C)c2ccccc2F)cn1 [Compound 71]", "UniProtKB O14744", "condition not met"),
    ("CNC(N)=Nc1ccc(C(=O)N(Cc2ccc(C(F)(F)F)cn2)[C@H](C)c2ccccc2F)cn1 [Compound 89]", "UniProtKB O14744", "condition met"),
    ("CNC(N)=Nc1ccc(C(=O)N(Cc2ccc(C(F)(F)F)cn2)C2CCCc3ccccc32)cn1 (stereo not shown) [Compound 61]", "UniProtKB O14744", "condition met"),
    ("CNC(N)=Nc1ccc(C(=O)N(Cc2ccc(C(F)(F)F)cn2)N2CCc3ccccc32)cn1 [Compound 64]", "UniProtKB O14744", "condition not met"),
    ("CN/C(N)=N\\c1ccc(C(=O)N(Cc2ccc(C(F)(F)F)cn2)C(c2ccccc2F)C2CC2)cn1 (stereo not shown) [Compound 94]", "UniProtKB O14744", "condition not met"),
    ("CN/C(N)=N\\c1ccc(C(=O)N(Cc2ccc(C(F)(F)F)cn2)C(C)c2ccc(F)cc2)cn1 (stereo not shown) [Compound 118]", "UniProtKB O14744", "condition met"),
]

Could you now consider this next compound?
Problem: Quick check: IC50 of CC(c1ncccn1)N(Cc1ccc(C(F)(F)F)cn1)C(=O)c1ccc(N=C(N)NO)nc1 (stereo not shown) [Compound 12] under 2 nM?
Solution: condition not met

====

Test system: HCT116 MTAP KO
assayProtocol: Cell proliferation inhibition (CellTiter Glo), HCT116 MTAP KO cells
Type: cell-based
conditionNotes: Homo sapiens, HCT-116, 144 h, cultured 6 days with compound
quantityKind: pIC50
Numbers only, as −log10 of the molar value.

Illustrative cases are given below, each with its answer.
# molecule, pIC50
data = [
    ("CNC(N)=Nc1ccc(C(=O)N(Cc2ccc(F)c(C)c2)[C@H](C)c2ccccc2F)cn1 [Compound 101]", 6.45),
    ("CNC(N)=Nc1ccc(C(=O)N(Cc2ccc(C(F)(F)F)cn2)[C@H](C)c2cccc(F)c2F)cn1 [Compound 91]", 7.02),
    ("CNC(N)=Nc1ccc(C(=O)N(Cc2ccc3sc(C4CCN(C)CC4)nc3c2)[C@H](C)c2ccccc2F)cn1 [Compound 79]", 6.11),
    ("CN/C(N)=N\\c1ccc(C(=O)N(Cc2ccc(C(F)(F)F)cn2)C(c2ccccc2F)C2CC2)cn1 (stereo not drawn) [Compound 94]", 7.31),
    ("CN/C(N)=N\\c1ccc(C(=O)N(Cc2ccc(-c3ccc(N4CCN(C)CC4)nc3)cn2)[C@H](C)c2ccccc2F)cn1 [Compound 130]", 6.48),
]

Need pIC50 for each of these molecules.
1. CNC(N)=Nc1ccc(C(=O)N(Cc2ccc(C(F)(F)F)cn2)C(C)c2ccccc2OC(F)(F)F)cn1 (stereo not drawn) [Compound 60]
2. CNC(N)=Nc1ccc(C(=O)N(Cc2ccc(-c3cnc4c(cnn4C)c3)cn2)[C@H](C)c2ccccc2F)cn1 [Compound 73]
3. CNC(N)=Nc1ccc(C(=O)N(Cc2ccc3ccsc3c2)[C@H](C)c2ccccc2F)cn1 [Compound 105]
4. CNC(N)=Nc1ccc(C(=O)N(Cc2ccc(C(F)(F)F)cn2)[C@H](C)c2ccccc2F)cn1 [Compound 89]
5. CNC(N)=Nc1ccc(C(=O)N(Cc2ccc(-c3cnn(C)c3)cn2)[C@H](C)c2ccccc2F)cn1 [Compound 129]
6. CNC(N)=Nc1ccc(C(=O)N(Cc2ccc(-c3cncs3)cn2)[C@H](C)c2ccccc2F)cn1 [Compound 72]
7. CNC(N)=Nc1ccc(C(=O)N(Cc2ccc(C(F)(F)F)cn2)n2ccc3cccnc32)cn1 [Compound 56]

Solution:
1. 6.03
2. 7.14
3. 6.58
4. 7.92
5. 6.63
6. 7.27
7. 7.44
